Biological target: T1, human CD70 expressed on the cell surface of tumor cell lines (human, UniProt P32970 1-193)
T1 construct: whole, on cells
T1 sequence (looked up): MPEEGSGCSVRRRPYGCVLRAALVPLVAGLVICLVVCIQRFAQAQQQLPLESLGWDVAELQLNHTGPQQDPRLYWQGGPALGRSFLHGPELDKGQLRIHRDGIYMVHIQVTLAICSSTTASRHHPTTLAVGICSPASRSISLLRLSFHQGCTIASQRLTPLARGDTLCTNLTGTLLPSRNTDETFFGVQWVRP
Test: flow cytometry on U251 cells
Protocol: The lead antibodies were tested for binding to renal carcinoma cells and glioblastoma cells expressing CD70 on the cell surface by flow cytometry. […] U251 cells were cultured with MEM medium containing of 10% FBS and 1% NEAA+1 mM sodium pyruvate. DBTRG-05MG cells were cultured with DMEM medium (Gibco, Cat #C11995500BT) containing of 10% FBS. […] The cells were pelleted again, washed with PBS, resuspended in FACS buffer and analyzed by flow cytometer (Beckman, CytoFLEX). […]
Measured EC50 accompanies every entry in the list below.
Answer in nM, number only, no unit symbol.

# binder, numeric_readout
measured = [
    ("1H8, full IgG (antibody, V domains shown) VH: QVQLQESGPGLVKPSETLSLTCTVSGGSVSSDYYYWSWIRQPPGKGLEWLGYIYYSGSTNYNPSLKSRVTISVDTSKNQFSLKLRSVTTADTAVYYCARGDGDFMGVCFDYWGQGTLVTVSS VL: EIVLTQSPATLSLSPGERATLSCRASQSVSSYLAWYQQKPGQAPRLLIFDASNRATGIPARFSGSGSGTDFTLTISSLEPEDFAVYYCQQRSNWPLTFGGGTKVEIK", 7.99),
    ("69A7 (parent antibody), full IgG (antibody, V domains shown, also called parent antibody 69A7) VH: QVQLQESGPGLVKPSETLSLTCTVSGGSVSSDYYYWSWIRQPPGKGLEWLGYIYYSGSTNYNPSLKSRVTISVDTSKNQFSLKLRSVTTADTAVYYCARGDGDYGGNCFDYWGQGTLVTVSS VL: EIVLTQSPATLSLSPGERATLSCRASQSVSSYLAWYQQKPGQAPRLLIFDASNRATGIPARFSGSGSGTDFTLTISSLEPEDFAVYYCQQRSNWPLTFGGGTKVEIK", 8.11),
]

Enquiry: Please give measured EC50 of the following entry: 2E7, full IgG (antibody, V domains shown) VH: QVQLQESGPGLVKPSETLSLTCTVSGGSVSSDYYYWSWIRQPPGKGLEWLGYIYYSGSTNYNPSLKSRVTISVDTSKNQFSLKLRSVTTADTAVYYCARGDGDFLGVCFDYWGQGTLVTVSS VL: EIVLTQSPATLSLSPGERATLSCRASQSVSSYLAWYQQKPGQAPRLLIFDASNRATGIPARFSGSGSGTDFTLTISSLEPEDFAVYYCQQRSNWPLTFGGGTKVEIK
Return: 4.03
